# assay: in vivo
# assay-setup: male, Sprague-Dawley, rat, plasma, iv, 5 mg/kg, T1/2, intravenous, 5 mg/kg b.w.
Where a SMILES comes first, the peptide text is derived from it. [ ]: non-standard residue; d: D form. The star is where a group is joined. d(aIle) = CC[C@H](C)[C@@H](N)C(=O)O; X1 = CC[C@H](C)CCCCC(=O)*; dDab = NCC[C@@H](N)C(=O)O; Dab = NCC[C@H](N)C(=O)O
measured-parameter: half-life (h)

>  <molecule>
CC[C@H](C)CCCCC(=O)NCC(=O)N[C@H](CCN)C(=O)NCC(=O)N[C@H](CO)C(=O)N[C@H](Cc1c[nH]c2ccccc12)C(=O)N[C@@H](CO)C(=O)N[C@@H](CCN)C(=O)N[C@H](CCN)C(=O)N[C@H](C(=O)N[C@@H](CCC(=O)O)C(=O)N[C@H](C(=O)N[C@@H](C(=O)N[C@@H](CO)C(=O)O)[C@@H](C)CC)[C@@H](C)CC)[C@@H](C)CC [Tridecaptin M, tridecaptin M] (X1-G[dDab]G[dS][dW]S[Dab][dDab]IEI[d(aIle)]S-OH)

>  <measured-parameter>
half-life

>  <unit>
h

>  <observed>
3.65

$$$$

###

# target-desc: UniProt P11712
# Sequence (P11712 whole entry, canonical isoform): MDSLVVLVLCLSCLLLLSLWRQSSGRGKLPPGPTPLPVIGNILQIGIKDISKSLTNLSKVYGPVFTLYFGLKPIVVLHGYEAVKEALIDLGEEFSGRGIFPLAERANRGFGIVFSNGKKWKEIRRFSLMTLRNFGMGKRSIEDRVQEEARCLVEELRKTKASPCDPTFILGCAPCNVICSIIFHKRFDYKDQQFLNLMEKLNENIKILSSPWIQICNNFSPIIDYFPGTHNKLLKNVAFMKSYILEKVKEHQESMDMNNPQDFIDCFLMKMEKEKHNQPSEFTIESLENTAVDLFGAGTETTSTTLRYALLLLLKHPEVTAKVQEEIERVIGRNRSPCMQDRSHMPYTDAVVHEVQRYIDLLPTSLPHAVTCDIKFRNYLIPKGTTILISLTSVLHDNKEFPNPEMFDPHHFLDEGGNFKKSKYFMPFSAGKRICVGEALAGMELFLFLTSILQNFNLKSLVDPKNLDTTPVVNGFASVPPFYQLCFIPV
# assay: CYP inhibition assay, recombinant isoform, fluorescence
# Type: biochemical
# assay-setup: human; 0.01 µM; read-out: % inhibition CYP 2C9
# Protocol: The CYP inhibition assay was performed for test/control inhibitor items in duplicates using a 96-well fluorescence plate. An example of the preparation of CYP inhibition is given below in Table 8. The plate with CYP master premix with test/control was incubated to allow the test/control samples to interact with CYP enzyme for 10 ± 1 min at 25°C under shaking conditions (400 rpm) using Thermomixer. […]
measured-parameter: inhibition at 25 min, 0.01 µM (%)

>  <compound>
Nc1ccc(S(=O)(=O)Nc2ccnn2-c2ccccc2)cc1 [Sulfaphenazole, reference compound]

>  <observed>
11.3

$$$$

###

# assay: in vivo
# assay-setup: male, Sprague-Dawley, rat, plasma, iv, 5 mg/kg
Where a SMILES comes first, the peptide text is derived from it. [ ]: non-standard residue; d: D form. The star is where a group is joined. d(aIle) = CC[C@H](C)[C@@H](N)C(=O)O; X1 = CC[C@H](C)CCCCC(=O)*; dDab = NCC[C@@H](N)C(=O)O; Dab = NCC[C@H](N)C(=O)O

>  <compound>
CC[C@H](C)CCCCC(=O)NCC(=O)N[C@H](CCN)C(=O)NCC(=O)N[C@H](CO)C(=O)N[C@H](Cc1c[nH]c2ccccc12)C(=O)N[C@@H](CO)C(=O)N[C@@H](CCN)C(=O)N[C@H](CCN)C(=O)N[C@H](C(=O)N[C@@H](CCC(=O)O)C(=O)N[C@H](C(=O)N[C@@H](C(=O)N[C@@H](CO)C(=O)O)[C@@H](C)CC)[C@@H](C)CC)[C@@H](C)CC [Tridecaptin M, tridecaptin M] (X1-G[dDab]G[dS][dW]S[Dab][dDab]IEI[d(aIle)]S-OH)

>  <unit>
h

>  <MRT last>
2.69

$$$$

###

# target-desc: CYP2C19 (Homo sapiens)
# Sequence (P33261 whole entry, canonical isoform): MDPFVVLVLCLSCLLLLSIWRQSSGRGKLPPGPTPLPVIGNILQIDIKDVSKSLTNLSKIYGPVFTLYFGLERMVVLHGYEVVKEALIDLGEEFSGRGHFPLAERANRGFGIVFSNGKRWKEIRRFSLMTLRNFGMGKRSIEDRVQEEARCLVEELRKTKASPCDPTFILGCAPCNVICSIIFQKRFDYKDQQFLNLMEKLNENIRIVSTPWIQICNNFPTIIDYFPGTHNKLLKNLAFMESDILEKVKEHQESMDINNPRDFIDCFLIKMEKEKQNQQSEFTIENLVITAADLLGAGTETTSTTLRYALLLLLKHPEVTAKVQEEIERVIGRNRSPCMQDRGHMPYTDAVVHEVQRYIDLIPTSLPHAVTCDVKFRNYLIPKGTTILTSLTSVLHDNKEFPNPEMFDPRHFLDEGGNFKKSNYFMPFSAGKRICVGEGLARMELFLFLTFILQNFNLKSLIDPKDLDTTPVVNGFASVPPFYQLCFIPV
# assay: CYP inhibition assay, recombinant isoform, fluorescence
# Type: biochemical
# assay-setup: human
Where a SMILES comes first, the peptide text is derived from it. [ ]: non-standard residue; d: D form. The star is where a group is joined. d(aIle) = CC[C@H](C)[C@@H](N)C(=O)O; X1 = CC[C@H](C)CCCCC(=O)*; dDab = NCC[C@@H](N)C(=O)O; Dab = NCC[C@H](N)C(=O)O

>  <molecule>
CC[C@H](C)CCCCC(=O)NCC(=O)N[C@H](CCN)C(=O)NCC(=O)N[C@H](CO)C(=O)N[C@H](Cc1c[nH]c2ccccc12)C(=O)N[C@@H](CO)C(=O)N[C@@H](CCN)C(=O)N[C@H](CCN)C(=O)N[C@H](C(=O)N[C@@H](CCC(=O)O)C(=O)N[C@H](C(=O)N[C@@H](C(=O)N[C@@H](CO)C(=O)O)[C@@H](C)CC)[C@@H](C)CC)[C@@H](C)CC [Tridecaptin M, tridecaptin M] (X1-G[dDab]G[dS][dW]S[Dab][dDab]IEI[d(aIle)]S-OH)

>  <inhibition at 25 min, 0.1 µM>
< 0%

$$$$
